- RUN DESCRIPTION: Selectivity index, ratio of TC50 for human HepG2 cells to EC50 for Trypanosoma brucei brucei 427
- Type: toxicity
- PARTICULARS: read-out: Selectivity Index
RECORDED ENDPOINT: selectivity ratio

CHEMICAL SMILES	selectivity ratio
CN1CCN(CC#Cc2cc3ncnc(Nc4ccc(OCc5cccc(F)c5)c(Cl)c4)c3s2)CC1	4.3
CN(C)CC#Cc1cc2c(Nc3ccc(OCc4cccc(F)c4)c(Cl)c3)ncnc2s1	> 13
CN1CCN(CC#Cc2ccc3ncnc(Nc4ccc(OCc5cccc(F)c5)c(Cl)c4)c3c2)CC1	8.2
COCC#Cc1cc2ncnc(Nc3ccc(OCc4cccc(F)c4)c(Cl)c3)c2s1	> 9.7
Fc1cccc(COc2ccc(Nc3ncnc4cc(C#Cc5ccccn5)sc34)cc2Cl)c1	18
Fc1cccc(COc2ccc(Nc3ncnc4cc(C#C[C@@H]5CCCN5)sc34)cc2Cl)c1	44
Fc1cccc(COc2ccc(Nc3ncnc4cc(C#CC5CCCC5)sc34)cc2Cl)c1	> 41
Fc1cccc(COc2ccc(Nc3ncnc4cc(C#CCN5CCCC5)sc34)cc2Cl)c1	18

Dear colleague, could you send me selectivity ratio for each of the items below? Thanks.
1. Fc1cccc(COc2ccc(Nc3ncnc4sc(C#CCN5CCNCC5)cc34)cc2Cl)c1
2. CN1CCN(CC#Cc2cc3c(Nc4ccc(OCc5cccc(F)c5)c(Cl)c4)ncnc3s2)CC1
3. CC(C)(C)OC(=O)N1CCC[C@H]1C#Cc1cc2ncnc(Nc3ccc(OCc4cccc(F)c4)c(Cl)c3)c2s1

result:
1. 4.1
2. 15
3. > 22
